tested_target: T1, PSD-95 PDZ1 (aa 61-151) (UniProt P78352 61-151)
T1 construct: postsynaptic density protein 95 (PSD-95), PDZ1, aa 61-151
test_name: fluorescence polarisation; competition: 25 nM Cy5-labeled probe (Cy5-KIF1Bα for PDZ1, Cy5-GluN2B for PDZ2, Cy5-CRIPT for PDZ3), constant PDZ protein at the probe's Kd, twofold dilution series of unlabeled peptide (typically 1–512 µM); 10 mM HEPES pH 7.4, 150 mM NaCl, 1% BSA, room temperature; Ki calculated from IC50
condition_label: both partners purified
Reported pKi by item:
A value of pKi is the negative decimal logarithm of a concentration given in moles per litre.

YDDRNLKAGRETTV (N-terminal linker (solubility, concentration determination); YDDR because the C-tail has no Tyr or Trp, by the rule of the methods; source: synthetic peptide (Schafer-N)) [KIF1Bα C-tail peptide (human), unlabeled]    5.15

Now take the following binder into account.
What value of measured pKi is listed for YEKLSSIESDV (No YDDR/DDR linker is told for this peptide; also called NR2B) [GluN2B C-tail peptide (human), unlabeled] ? 4.54
